tested on: SR; assay: NCI tumour cell line growth inhibition, 48 h
The source made the active and inactive calls. Rule as the data show it: active = GI50 up to about 1.1 µM and inactive = higher. *1 amine or outer side, *2 acyl side, *3 side chain or, on linkers, in order; H or OH if unused. Where a SMILES comes first, the peptide text is derived from it. Bridges are numbered along the chain shown (N, C = ends). Roman numbers before positions name the chains, in order. [ ]: non-standard residue; d: D form. Actinocin(9to1) = Cc1c2oc3c(C)ccc(C(=O)[*:1])c3nc-2c(C(=O)[*:2])c(N)c1=O; NMeV = CN[CH](C(=O)O)C(C)C; Sar = CNCC(=O)O
Pick from true (active), false (inactive) when you respond.

Worked cases, answers included:
MOLECULE: O=C1CCCCC/C1=C\c1cccc(Cl)c1
TESTED_SYSTEM: SR
DISCRETE_LABEL: false

MOLECULE: CC(C)c1cc(C(C)C)c(P2(=O)CC3C(Cl)(Cl)C3(C)C2)c(C(C)C)c1 (stereo not drawn)
TESTED_SYSTEM: SR
DISCRETE_LABEL: false

MOLECULE: CCCNC(=S)N/N=C/c1cccc(C)n1
TESTED_SYSTEM: SR
DISCRETE_LABEL: false

Recorded test call requested for CC1(CO)OC(n2cnc3c(N)ncnc32)C(O)C1O (stereo not drawn)
false

Recorded test call requested for COC(=O)C1=Cc2cc(OC)c(OC)cc2[C@H](c2ccc(OC)c(OC)c2)C1C(=O)OC (stereo partly drawn)
false

Recorded test call requested for Clc1ccc(/N=C/c2cc3cc(Br)ccc3nc2Cl)cc1
false

Recorded test call requested for CC1(C)OC2OC(COC(=O)C(c3ccccc3)c3ccccc3)C3OC(C)(C)OC3C2O1 (stereo not drawn)
false

Recorded test call requested for COc1ccc(/C=C2\Sc3nnc(-c4ccccc4)n3N=C2c2cc(F)c(Cl)cc2Cl)cc1OC
false

Recorded test call requested for O=C1CC(=O)NC(NN2C(=O)CSC2c2ccccc2)=N1 (stereo not drawn)
false

Recorded test call requested for NCc1ccc(C(=O)O)cc1
false

Recorded test call requested for N[C@]1(C(=O)O)C[C@@H]2C(Br)=NO[C@@H]2C1
false

Recorded test call requested for N#CNC(=N)Nc1ccc(Cl)cc1
false

Recorded test call requested for Cc1c2oc3c(C)ccc(C(=O)NC4C(=O)NC(C(C)O)C(=O)N5CCCC5C(=O)N(C)CC(=O)N(C)C(C(C)C)C(=O)OC4C)c3nc-2c(C(=O)NC2C(=O)NC(C(C)O)C(=O)N3CCCC3C(=O)N(C)CC(=O)N(C)C(C(C)C)C(=O)OC2C)c(N)c1=O (stereo not drawn) (I: TTP[Sar][NMeV] / II: TTP[Sar][NMeV]; ester I:1-I:C, II:1-II:C; linker I:N-II:N via Actinocin(9to1); configuration not given here)
true

Recorded test call requested for O=C(O[C@@H](/C=C/c1ccccc1)P1(=O)N(Cc2ccccc2)[C@@H]2CCCC[C@H]2N1Cc1ccccc1)c1ccccc1
false

Recorded test call requested for CCOC(=O)C(=O)Nc1ccc([N+](=O)[O-])cc1C#N
false

Recorded test call requested for CCOC(=O)CC[C@H](NC(=O)[C@H](N)Cc1ccc(N(CCCl)CCCl)cc1)C(=O)OCC
false

Recorded test call requested for Clc1ccc(CCn2ccc3ccccc32)c(Cl)c1
false

Recorded test call requested for Cc1nc(N)nc(N)c1CCCCc1ccc(N)cc1
false
